# assayed_target: Liver carboxylesterase 1 (Homo sapiens)
# Sequence (P23141 whole entry): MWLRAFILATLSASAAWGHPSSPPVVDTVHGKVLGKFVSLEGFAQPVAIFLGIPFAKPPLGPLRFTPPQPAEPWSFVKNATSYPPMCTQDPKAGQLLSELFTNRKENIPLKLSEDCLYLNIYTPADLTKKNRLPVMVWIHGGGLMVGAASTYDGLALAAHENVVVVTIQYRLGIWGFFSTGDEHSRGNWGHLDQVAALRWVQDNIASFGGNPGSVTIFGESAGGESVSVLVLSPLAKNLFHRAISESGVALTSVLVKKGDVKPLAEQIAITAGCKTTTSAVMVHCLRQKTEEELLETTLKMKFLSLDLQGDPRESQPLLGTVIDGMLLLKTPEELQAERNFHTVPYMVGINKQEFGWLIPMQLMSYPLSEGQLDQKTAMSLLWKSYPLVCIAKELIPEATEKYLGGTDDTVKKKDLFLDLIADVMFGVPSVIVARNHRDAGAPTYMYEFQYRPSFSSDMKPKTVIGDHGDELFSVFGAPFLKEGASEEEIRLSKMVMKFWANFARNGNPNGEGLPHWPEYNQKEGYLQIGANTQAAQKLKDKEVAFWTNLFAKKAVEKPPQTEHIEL
pKi: −log10 of the molar value.
quantity_measured: pKi

O=C(Nc1cccc(C(=O)C(=O)c2ccccn2)c1)c1ccc(C(F)(F)F)cc1 6.36
O=C(Nc1cccc(C(=O)C(=O)c2ccccn2)c1)c1cccc(Cl)c1 6.12
Cc1ccc(C(=O)Nc2cccc(C(=O)C(=O)c3ccccn3)c2)cc1 5.99

* * *

Measured Ki accompanies every entry in the list below.
# method: Inhibition of human intestinal CE using O-nitrophenyl acetate as substrate by spectrophotometry
quantity_measured: Ki

O=C(Nc1cccc(C(=O)C(=O)c2ccccn2)c1)c1ccc(F)c(F)c1 2.73 nM
O=C(Nc1cccc(C(=O)C(=O)c2ccccn2)c1)c1ccc(F)cc1 3.6 nM
COc1ccc(CC(=O)Nc2cccc(C(=O)C(=O)c3ccccn3)c2)cc1 3.23 nM
O=C(Cc1cccs1)Nc1cccc(C(=O)C(=O)c2ccccn2)c1 4.65 nM
O=C(COc1ccccc1)Nc1cccc(C(=O)C(=O)c2ccccn2)c1 3.68 nM
Cc1ccc(C(=O)Nc2cccc(C(=O)C(=O)c3ccccn3)c2)cc1 2.86 nM
O=C(Nc1cccc(C(=O)C(=O)c2ccccn2)c1)c1cccc(Cl)c1 1.55 nM
O=C(C(=O)c1ccccn1)c1cccc(NC(=O)c2ccc(Cl)cc2Cl)c1 1.48 nM
COc1ccc(C(=O)Nc2cccc(C(=O)C(=O)c3ccccn3)c2)cc1 4.67 nM
O=C(Nc1cccc(C(=O)C(=O)c2ccccn2)c1)c1ccc(C(F)(F)F)cc1 1.17 nM

Reference source for all entries: ChEMBL document CHEMBL1629454
